- target-desc: PDE1 (calmodulin-dependent 3,5-cyclic-nucleotide phosphodiesterase)
- experimental-protocol: CaM-dependent PDE1 cAMP hydrolysis assay, Lineweaver-Burk and Dixon plots
assay-metric: pKi
pKi is defined as minus the log10 of a concentration measured in mol/L.

[Q] For the molecule C[C@@H]1CC[C@H]2[C@@H](C)C(=O)O[C@@H]3O[C@@]4(C)CC[C@@H]1[C@]32OO4 , what pKi is on record?
[A] 5.00

Where do these numbers come from? They come from paper PMC3907678.
